target.of.assay: STAT3 (Homo sapiens, UniProt P40763)
Construct: Recombinant STAT3 protein (STAT3(G127-1722))
Sequence (P40763 127-722 limits assumed): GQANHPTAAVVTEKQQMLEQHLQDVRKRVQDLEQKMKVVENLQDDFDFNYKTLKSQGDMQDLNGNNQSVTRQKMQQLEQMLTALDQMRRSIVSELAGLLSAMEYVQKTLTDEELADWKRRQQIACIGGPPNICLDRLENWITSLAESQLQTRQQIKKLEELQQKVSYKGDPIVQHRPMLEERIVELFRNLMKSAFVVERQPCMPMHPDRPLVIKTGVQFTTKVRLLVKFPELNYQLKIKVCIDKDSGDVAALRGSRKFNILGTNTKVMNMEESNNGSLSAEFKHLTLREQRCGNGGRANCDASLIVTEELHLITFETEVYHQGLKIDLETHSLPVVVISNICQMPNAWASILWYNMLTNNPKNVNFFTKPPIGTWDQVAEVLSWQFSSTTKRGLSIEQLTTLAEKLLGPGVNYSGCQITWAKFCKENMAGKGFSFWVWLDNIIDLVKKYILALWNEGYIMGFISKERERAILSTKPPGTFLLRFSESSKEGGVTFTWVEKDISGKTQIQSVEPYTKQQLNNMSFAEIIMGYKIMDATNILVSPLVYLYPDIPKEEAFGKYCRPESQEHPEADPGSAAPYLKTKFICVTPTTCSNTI
experiment.summary: STAT3 Fluorescence Polarization (FP) Assay
Assay type: binding
pIC50: −log10 of the molar value.
assay.readout: pIC50

[[record]]
compound = "Cc1ccc2[nH]nc(C(=O)N3CC[C@H]4CC[C@@H](C(=O)NCCCCCCCCC(=O)N[C@H](C(=O)N5C[C@H](O)C[C@H]5C(=O)N[C@@H](C)c5ccc(-c6scnc6C)cc5)C(C)(C)C)N4C(=O)[C@@H](NC(=O)c4ccc5ccc(C(F)(F)P(=O)(O)O)cc5c4)C3)c2c1 [Compound 7]"
assay_readout = "pIC50"
result = "5.00 to 6.00"

[[record]]
compound = "Cc1ccc2[nH]nc(C(=O)N3CC[C@H]4CC[C@@H](C(=O)NCCCCCCC#Cc5cccc6c5CN(C5CCC(=O)NC5=O)C6=O)N4C(=O)[C@@H](NC(=O)c4ccc5ccc(C(F)(F)P(=O)(O)O)cc5c4)C3)c2c1 (stereo partly shown) [Compound 9]"
assay_readout = "pIC50"
result = "5.00 to 6.00"

[[record]]
compound = "Cc1ccc2[nH]nc(C(=O)N3CC[C@H]4CC[C@@H](C(=O)N(C)CCCCCCC#Cc5cccc6c5CN(C5CCC(=O)NC5=O)C6=O)N4C(=O)[C@@H](NC(=O)c4ccc5ccc(C(F)P(=O)(O)O)cc5c4)C3)c2c1 (stereo partly shown) [Compound 14]"
assay_readout = "pIC50"
result = "< 5.00"

[[record]]
compound = "Cc1ccc2[nH]nc(C(=O)N3CC[C@H]4CC[C@@H](C(=O)N(C)CCCCCCC#Cc5cccc6c5CN(C5CCC(=O)NC5=O)C6=O)N4C(=O)[C@@H](NC(=O)c4ccc5ccc(C(F)(F)P(=O)(O)O)cc5c4)C3)c2c1 (stereo partly shown) [Compound 11]"
assay_readout = "pIC50"
result = "5.00 to 6.00"


====

target.of.assay: pSTAT6 (Homo sapiens)
Construct: pY641-STAT6 MSD read-out
Sequence (P42226 whole entry): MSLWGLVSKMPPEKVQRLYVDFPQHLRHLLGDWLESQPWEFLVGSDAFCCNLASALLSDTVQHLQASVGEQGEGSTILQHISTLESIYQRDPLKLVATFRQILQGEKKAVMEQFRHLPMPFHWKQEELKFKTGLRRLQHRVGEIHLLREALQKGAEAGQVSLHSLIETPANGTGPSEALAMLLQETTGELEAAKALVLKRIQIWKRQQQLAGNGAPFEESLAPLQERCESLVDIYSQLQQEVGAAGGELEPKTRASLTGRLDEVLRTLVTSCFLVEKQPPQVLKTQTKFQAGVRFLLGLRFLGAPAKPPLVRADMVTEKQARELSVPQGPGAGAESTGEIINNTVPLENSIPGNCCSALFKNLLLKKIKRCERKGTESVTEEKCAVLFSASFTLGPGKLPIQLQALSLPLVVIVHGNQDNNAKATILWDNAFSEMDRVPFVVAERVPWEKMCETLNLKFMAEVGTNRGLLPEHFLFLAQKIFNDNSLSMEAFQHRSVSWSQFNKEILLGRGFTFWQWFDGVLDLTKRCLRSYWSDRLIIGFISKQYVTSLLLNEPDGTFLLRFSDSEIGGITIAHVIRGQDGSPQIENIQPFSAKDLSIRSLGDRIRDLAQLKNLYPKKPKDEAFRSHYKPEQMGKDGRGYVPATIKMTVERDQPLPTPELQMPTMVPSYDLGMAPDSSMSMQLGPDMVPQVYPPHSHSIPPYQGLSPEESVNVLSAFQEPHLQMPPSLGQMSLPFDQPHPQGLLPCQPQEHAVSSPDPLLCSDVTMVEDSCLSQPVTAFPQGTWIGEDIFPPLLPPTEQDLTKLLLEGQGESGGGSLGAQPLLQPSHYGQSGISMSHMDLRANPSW
experiment.summary: MSD-pSTAT-PBMC Assay, pSTAT6 (IL-4 stimulated PBMC)
Format: cell-based
run.conditions: compound 3 hrs, then 1 ng/mL IL-4 for 10 min, pY641-STAT6, read-out: pSTAT6 IC50
pIC50: −log10 of the molar value.
assay.readout: pIC50

[[record]]
compound = "Cc1ccc2onc(C(=O)N3CC[C@H]4CC[C@@H](C(=O)N(C)CCCCCCC#Cc5cccc6c5CN(C5CCC(=O)NC5=O)C6=O)N4C(=O)[C@@H](NC(=O)c4ccc5ccc(C(F)(F)P(=O)(O)OCCSC(=O)CC(C)C)cc5c4)C3)c2c1 (some centres unmarked) [Compound 23]"
assay_readout = "pIC50"
result = "< 5.52"

[[record]]
compound = "Cc1ccc2onc(C(=O)N3CC[C@H]4CC[C@@H](C(=O)N5CCN(c6ccc7[nH]c(=O)n(C8CCC(=O)NC8=O)c7c6)CC5)N4C(=O)[C@@H](NC(=O)c4ccc5ccc(C(F)(F)P(=O)(O)O)cc5c4)C3)c2c1 (some centres unmarked) [Compound 37]"
assay_readout = "pIC50"
result = "< 5.52"


====

Each item that follows carries a reported IC50.
target.of.assay: pSTAT3 (Homo sapiens, UniProt P40763)
Construct: pY705-STAT3 MSD read-out
Sequence (P40763 whole entry): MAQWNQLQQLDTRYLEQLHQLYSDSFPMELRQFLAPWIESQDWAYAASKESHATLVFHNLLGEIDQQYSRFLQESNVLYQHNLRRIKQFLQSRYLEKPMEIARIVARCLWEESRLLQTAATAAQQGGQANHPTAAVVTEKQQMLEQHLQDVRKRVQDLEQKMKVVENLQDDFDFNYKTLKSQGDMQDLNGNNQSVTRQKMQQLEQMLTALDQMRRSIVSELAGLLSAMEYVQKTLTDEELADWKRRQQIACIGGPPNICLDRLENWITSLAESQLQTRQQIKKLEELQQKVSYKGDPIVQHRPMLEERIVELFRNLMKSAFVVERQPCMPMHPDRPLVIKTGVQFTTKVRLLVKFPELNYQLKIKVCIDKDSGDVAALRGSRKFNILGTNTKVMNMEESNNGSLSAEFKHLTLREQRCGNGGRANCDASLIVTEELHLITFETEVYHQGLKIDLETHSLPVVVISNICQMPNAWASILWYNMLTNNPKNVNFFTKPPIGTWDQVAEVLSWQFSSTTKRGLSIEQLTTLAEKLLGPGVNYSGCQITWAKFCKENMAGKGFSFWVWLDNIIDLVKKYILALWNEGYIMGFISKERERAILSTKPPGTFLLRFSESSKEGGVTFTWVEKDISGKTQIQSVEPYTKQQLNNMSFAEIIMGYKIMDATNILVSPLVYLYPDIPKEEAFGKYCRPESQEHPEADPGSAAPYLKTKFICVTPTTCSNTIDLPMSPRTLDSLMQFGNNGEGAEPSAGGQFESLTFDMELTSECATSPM
experiment.summary: MSD-pSTAT-PBMC Assay, pSTAT3 (IL-6 stimulated PBMC)
Type: cell-based
run.conditions: read-out: pSTAT3 IC50, compound 3 hrs, then 10 ng/mL IL-6 for 10 min, pY705-STAT3
assay.readout: IC50

[[record]]
compound = "CCCOC(=O)[C@H](C)NP(=O)(Oc1ccccc1)C(F)c1ccc2ccc(C(=O)N[C@H]3CN(C(=O)c4n[nH]c5ccc(C)cc45)CC[C@H]4CC[C@@H](C(=O)N(C)CCCCCCC#Cc5cccc6c5CN(C5CCC(=O)NC5=O)C6=O)N4C3=O)cc2c1 (some centres unmarked) [Compound 13]"
result = "> 3 µM"

[[record]]
compound = "CC(=O)N1CC[C@H]2CC[C@@H](C(=O)Nc3ccc(-c4ccc(NC(=O)CCCCCC#Cc5cccc6c5CN(C5CCC(=O)NC5=O)C6=O)cc4)cc3)N2C(=O)[C@@H](NC(=O)c2cc3cc(C(F)(F)P(=O)(O)O)ccc3[nH]2)C1 (some centres unmarked) [Compound 3]"
result = "> 3 µM"

